# Tested on: off-target genomic sites
# EXPERIMENTAL PROTOCOL: Off-target oligo insertion based assay in HEK293_Cas9 cells, dgRNAs and sgRNAs (Tables 23, 24)
# Type: cell-based, human
# CONDITION SUMMARY: Table 30; TTR sgRNAs, HekCas9 cells, repeated from Example 5 for comparison
Strand notation (5' to 3'): a small letter for the sugar, then the base; units joined by * are phosphorothioate-linked, units joined directly phosphodiester-linked; [ ] holds rarer units or linkages, { } end groups; capitals alone tell only the bases. m = 2'-O-methyl; r = 2'-OH (RNA)
Friendly reminder: # Sites in HekCas9 cells (Example 5) below 10 is 1, at or above is 0.

G000501: TTR sgRNA modified sequence, Human, SEQ ID No. 108; guide sequence of CR005300 (nucleic acid) guide: mU*mC*mA*rCrArGrArArArCrArCrUrCrArCrCrGrUrArGrUrUrUrUrArGrAmGmCmUmAmGmAmAmAmUmAmGmCrArArGrUrUrArArArArUrArArGrGrCrUrArGrUrCrCrGrUrUrArUrCrAmAmCmUmUmGmAmAmAmAmAmGmUmGmGmCmAmCmCmGmAmGmUmCmGmGmUmGmCmU*mU*mU*mU	1
G000482: TTR sgRNA modified sequence, Human, SEQ ID No. 89; guide sequence of CR003365 (nucleic acid) guide: mU*mG*mU*rArGrArArGrGrGrArUrArUrArCrArArArGrGrUrUrUrUrArGrAmGmCmUmAmGmAmAmAmUmAmGmCrArArGrUrUrArArArArUrArArGrGrCrUrArGrUrCrCrGrUrUrArUrCrAmAmCmUmUmGmAmAmAmAmAmGmUmGmGmCmAmCmCmGmAmGmUmCmGmGmUmGmCmU*mU*mU*mU	0
G000486: TTR sgRNA modified sequence, Human, SEQ ID No. 93; guide sequence of CR003339 (nucleic acid) guide: mA*mC*mA*rCrArArArUrArCrCrArGrUrCrCrArGrCrArGrUrUrUrUrArGrAmGmCmUmAmGmAmAmAmUmAmGmCrArArGrUrUrArArArArUrArArGrGrCrUrArGrUrCrCrGrUrUrArUrCrAmAmCmUmUmGmAmAmAmAmAmGmUmGmGmCmAmCmCmGmAmGmUmCmGmGmUmGmCmU*mU*mU*mU	0
G000570: TTR sgRNA modified sequence, Human, SEQ ID No. 111; guide sequence of CR003347 (nucleic acid) guide: mC*mA*mU*rUrGrArUrGrGrCrArGrGrArCrUrGrCrCrUrGrUrUrUrUrArGrAmGmCmUmAmGmAmAmAmUmAmGmCrArArGrUrUrArArArArUrArArGrGrCrUrArGrUrCrCrGrUrUrArUrCrAmAmCmUmUmGmAmAmAmAmAmGmUmGmGmCmAmCmCmGmAmGmUmCmGmGmUmGmCmU*mU*mU*mU	0
G000493: TTR sgRNA modified sequence, Human, SEQ ID No. 100; guide sequence of CR003368 (nucleic acid) guide: mA*mA*mG*rUrGrCrCrUrUrCrCrArGrUrArArGrArUrUrGrUrUrUrUrArGrAmGmCmUmAmGmAmAmAmUmAmGmCrArArGrUrUrArArArArUrArArGrGrCrUrArGrUrCrCrGrUrUrArUrCrAmAmCmUmUmGmAmAmAmAmAmGmUmGmGmCmAmCmCmGmAmGmUmCmGmGmUmGmCmU*mU*mU*mU	1
G000497: TTR sgRNA modified sequence, Human, SEQ ID No. 104; guide sequence of CR003335 (nucleic acid) guide: mC*mU*mG*rCrUrCrCrUrCrCrUrCrUrGrCrCrUrUrGrCrGrUrUrUrUrArGrAmGmCmUmAmGmAmAmAmUmAmGmCrArArGrUrUrArArArArUrArArGrGrCrUrArGrUrCrCrGrUrUrArUrCrAmAmCmUmUmGmAmAmAmAmAmGmUmGmGmCmAmCmCmGmAmGmUmCmGmGmUmGmCmU*mU*mU*mU	0
